- TESTED SYSTEM: CTD of SARS-CoV-2 nucleocapsid (N) protein (Severe acute respiratory syndrome coronavirus 2)
- METHOD NOTES: 1H-15N HSQC NMR titration, […] MHz, one-site fit of chemical shift differences, average of […] residues
pKd: −log10 of the molar value.

COMPOUND | pKd
CCN(CCO)CCCC(C)Nc1ccnc2cc(Cl)ccc12 (stereo not shown) [Hydroxychloroquine] | 4.28

====

- TESTED SYSTEM: UniProt P0DTC9
- METHOD NOTES: 1H-15N HSQC NMR titration, […] MHz, one-site fit of chemical shift differences, average of […] residues
- Assay type: binding

COMPOUND | Kd / µM
CCN(CCO)CCCC(C)Nc1ccnc2cc(Cl)ccc12 (stereo not shown) [Hydroxychloroquine] | 112

Every entry's value here was drawn from paper PMC10392676.
